// data source = ChEMBL document CHEMBL1671722

Test system: Haemophilus influenzae
Experiment: Antimicrobial activity against Haemophilus influenzae by broth microdilution method
Assay type: functional
Catalogue of MIC90 values
Numbers only; they are read as µg/mL.

1. C[C@H]1COc2c(N3CCN(C)CC3)c(F)cc3c(=O)c(C(=O)O)cn1c23.C[C@H]1COc2c(N3CCN(C)CC3)c(F)cc3c(=O)c(C(=O)O)cn1c23.O 0.06

Next up:
For "c1cc2cc(-c3ccc(-c4cc5ccc(C6=NCCCN6)cc5[nH]4)cc3)[nH]c2cc1C1=NCCCN1" , what is its reported MIC90?
4

* * *

System: Acinetobacter baumannii
Experiment: Antimicrobial activity against multiple dug-resistant Acinetobacter baumannii by broth microdilution method
Assay type: functional
Test Readout: MIC50 (µg/mL)
Please reply with the bare figure in µg/mL and do not write the unit itself.

Some solved cases for reference:
Molecule	Readout Units	Measured
c1cc2cc(-c3ccc(-c4cc5ccc(C6=NCCCN6)cc5[nH]4)cc3)[nH]c2cc1C1=NCCCN1	µg/mL	2
C[C@@H](O)[C@H]1C(=O)N2C(C(=O)O)=C(SCCNC=N)C[C@H]12 [IMIPENEM ANHYDROUS]	µg/mL	4
CN(C)c1cc(NC(=O)CNC(C)(C)C)c(O)c2c1C[C@H]1C[C@H]3[C@H](N(C)C)C(O)=C(C(N)=O)C(=O)[C@@]3(O)C(O)=C1C2=O	µg/mL	0.5

Bench note: what MIC50 did "O=C(O)c1cn(C2CC2)c2cc(N3CCNCC3)c(F)cc2c1=O" show?
2
